Measured Target: NLRP3 inflammasome (Homo sapiens, UniProt Q96P20)
Construct: endogenous in cells
Sequence (Q96P20 whole entry): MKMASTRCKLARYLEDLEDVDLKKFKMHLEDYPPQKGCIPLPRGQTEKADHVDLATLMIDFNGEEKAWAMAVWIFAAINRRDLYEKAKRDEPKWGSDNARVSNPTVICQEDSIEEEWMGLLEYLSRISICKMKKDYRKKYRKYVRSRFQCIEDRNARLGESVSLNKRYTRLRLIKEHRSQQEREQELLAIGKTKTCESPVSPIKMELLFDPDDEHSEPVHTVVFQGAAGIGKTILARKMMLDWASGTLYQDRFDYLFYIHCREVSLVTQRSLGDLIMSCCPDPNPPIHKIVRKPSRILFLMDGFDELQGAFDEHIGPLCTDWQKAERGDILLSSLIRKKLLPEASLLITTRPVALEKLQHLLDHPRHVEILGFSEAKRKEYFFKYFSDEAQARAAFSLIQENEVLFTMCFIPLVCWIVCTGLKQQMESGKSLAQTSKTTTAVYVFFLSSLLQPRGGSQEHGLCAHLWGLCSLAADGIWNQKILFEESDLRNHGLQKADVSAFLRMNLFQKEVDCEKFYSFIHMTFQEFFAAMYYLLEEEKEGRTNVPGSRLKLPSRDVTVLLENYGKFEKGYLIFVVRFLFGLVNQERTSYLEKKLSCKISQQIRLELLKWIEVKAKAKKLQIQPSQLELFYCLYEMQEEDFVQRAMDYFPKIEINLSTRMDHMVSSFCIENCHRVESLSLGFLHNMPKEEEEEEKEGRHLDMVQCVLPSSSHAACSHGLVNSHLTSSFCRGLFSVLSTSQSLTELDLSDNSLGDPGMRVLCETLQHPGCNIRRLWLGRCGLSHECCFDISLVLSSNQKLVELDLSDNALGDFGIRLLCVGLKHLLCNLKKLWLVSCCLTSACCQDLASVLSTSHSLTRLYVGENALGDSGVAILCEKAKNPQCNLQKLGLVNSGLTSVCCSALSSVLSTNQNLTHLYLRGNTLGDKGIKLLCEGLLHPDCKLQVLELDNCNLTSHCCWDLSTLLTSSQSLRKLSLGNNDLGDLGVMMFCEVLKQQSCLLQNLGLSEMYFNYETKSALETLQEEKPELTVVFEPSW
Assay Info: THP-1 Cell-Based NLRP3 Activation Assay
Measurement Parameters: THP-1 cells, PMA, 100 ng/mL LPS 3 hrs, 30 min pre-incubation with test compound, 10 μM nigericin 1 hr
# reported IC50; entries follow

> print(dat)
                                   compound  result.value
1  CCOc1cc(C(=O)N(C)Cc2cnc(C)c3cn[nH]c23)ccc1-c1cccs1     < 1000 nM
2  CN(Cc1cnc(CO)c2cn[nH]c12)C(=O)c1cc(Cl)c(-c2cccc(F)c2)c(OC2CC2)c1     < 1000 nM

IC50 of CC(C)Oc1cc(C(=O)N(C)Cc2cnc(CO)c3cn[nH]c23)ccc1-c1cc(F)cc(F)c1 , assay on NLRP3 inflammasome (Homo sapiens, UniProt Q96P20), is < 1000 nM

IC50 of CCN(Cc1cnc(CO)c2cn[nH]c12)C(=O)c1ccc(-c2cccc(F)c2)c(OC2CC2)c1 , assay on NLRP3 inflammasome (Homo sapiens, UniProt Q96P20), is < 1000 nM

IC50 of CCOc1cc(C(=O)N(C)Cc2ccc(CO)c3cn[nH]c23)ccc1-c1cccc(F)c1 , assay on NLRP3 inflammasome (Homo sapiens, UniProt Q96P20), is < 1000 nM

IC50 of CCOc1cc(C(=O)N(C)Cc2c(C)c(OC)cc3cn[nH]c23)ccc1-c1cccc(F)c1 , assay on NLRP3 inflammasome (Homo sapiens, UniProt Q96P20), is < 1000 nM

IC50 of CN(Cc1cc(O)cc2cn[nH]c12)C(=O)c1cc(F)c(-c2cccc(Cl)c2)c(OC2CC2)c1 , assay on NLRP3 inflammasome (Homo sapiens, UniProt Q96P20), is < 1000 nM

IC50 of Cc1nc(CO)c2cn[nH]c2c1CN(C)C(=O)c1ccc(-c2cccc(Cl)c2)c(OC2CC2)c1 , assay on NLRP3 inflammasome (Homo sapiens, UniProt Q96P20), is < 1000 nM

IC50 of CCOc1cc(C(=O)N(C)Cc2cnc(C(O)C(F)(F)F)c3cn[nH]c23)ccc1-c1cccc(F)c1 (stereo not shown) , assay on NLRP3 inflammasome (Homo sapiens, UniProt Q96P20), is < 1000 nM

IC50 of CCOc1cc(C(=O)N(CC)Cc2cnc(C(C)O)c3cn[nH]c23)cc(F)c1-c1cccc(Cl)c1 (stereo not shown) , assay on NLRP3 inflammasome (Homo sapiens, UniProt Q96P20), is < 1000 nM

IC50 of CCOc1cc(C(=O)N(C)[C@@H](C)c2cc(F)cc3cn[nH]c23)ccc1-c1cccc(F)c1 , assay on NLRP3 inflammasome (Homo sapiens, UniProt Q96P20), is < 1000 nM

IC50 of CCOc1nc(C(=O)N(C)Cc2cc(O)cc3cn[nH]c23)ccc1-c1cccc(F)c1 , assay on NLRP3 inflammasome (Homo sapiens, UniProt Q96P20), is < 10000 nM

IC50 of CCOc1cc(C(=O)N(C)Cc2c(C)nc(CO)c3cn[nH]c23)ccc1-c1cccc(F)c1 , assay on NLRP3 inflammasome (Homo sapiens, UniProt Q96P20), is < 1000 nM

IC50 of CCC(c1cncc2cn[nH]c12)N(C)C(=O)c1ccc(-c2cccc(F)c2)c(OC2CC2)c1 (stereo not shown) , assay on NLRP3 inflammasome (Homo sapiens, UniProt Q96P20), is < 1000 nM

IC50 of CCOc1cc(C(=O)N(C)C(CC)c2cncc3cn[nH]c23)ccc1-c1cccc(F)c1 (stereo not shown) , assay on NLRP3 inflammasome (Homo sapiens, UniProt Q96P20), is < 1000 nM

IC50 of CCOc1nc(C(=O)N(C)[C@H](C)c2cnc(C)c3cn[nH]c23)ccc1-c1cccc(F)c1 , assay on NLRP3 inflammasome (Homo sapiens, UniProt Q96P20), is < 50000 nM

src = patent US20240116933A1
